The reported numbers originate from the supplement of paper PMC11246515.

- test.method.notes: total protein half-life in vivo (active degradation + dilution); higher = more stable protein
- particulars: wild type E. coli NCM3722; growth: N-lim chemostat; doubling time 6 h
readout.label: total protein half-life in vivo (h)
The answer is to be given in h; state only the numeric part.

INSERT INTO assay_data (residue_codes, readout_label, value_unit, test_result) VALUES
  ('MNNHFKCIGIVGHPRHPTALTTHEMLYRWLCTKGYEVIVEQQIAHELQLKNVKTGTLAEIGQLADLAVVVGGDGNMLGAARTLARYDIKVIGINRGNLGFLTDLDPDNAQQQLADVLEGHYISEKRFLLEAQVCQQDCQKRISTAINEVVLHPGKVAHMIEFEVYIDEIFAFSQRSDGLIISTPTGSTAYSLSAGGPILTPSLDAITLVPMFPHTLSARPLVINSSSTIRLRFSHRRNDLEISCDSQIALPIQEGEDVLIRRCDYHLNLIHPKDYSYFNTLSTKLGWSKKLF [P0A7B3]', 'total protein half-life in vivo', 'h', 4.4),
  ('MALPILLDCDPGHDDAIAIVLALASPELDVKAITSSAGNQTPEKTLRNVLRMLTLLNRTDIPVAGGAVKPLMRELIIADNVHGESGLDGPALPEPTFAPQNCTAVELMAKTLRESAEPVTIVSTGPQTNVALLLNSHPELHSKIARIVIMGGAMGLGNWTPAAEFNIYVDPEAAEIVFQSGIPVVMAGLDVTHKAQIHVEDTERFRAIGNPVSTIVAELLDFFLEYHKDEKWGFVGAPLHDPCTIAWLLKPELFTSVERWVGVETQGKYTQGMTVVDYYYLTGNKPNATVMVDVDRQGFVDLLADRLKFYA', 'total protein half-life in vivo', 'h', 4.76);

Value of measured total protein half-life in vivo for the entry "MKKVLIAALIAGFSLSATAAETIRFATEASYPPFESIDANNQIVGFDVDLAQALCKEIDATCTFSNQAFDSLIPSLKFRRVEAVMAGMDITPEREKQVLFTTPYYDNSALFVGQQGKYTSVDQLKGKKVGVQNGTTHQKFIMDKHPEITTVPYDSYQNAKLDLQNGRIDGVFGDTAVVTEWLKDNPKLAAVGDKVTDKDYFGTGLGIAVRQGNTELQQKLNTALEKVKKDGTYETIYNKWFQK" : 5.64
